# Method: Antiproliferative activity against human SMMC7721 cells over expressing EGFR after 48 hrs by MTT assay
# Type: functional, cell-based
# Reported Conditions: SMMC-7721, 48 h
Each entry below carries its recorded IC50.
Measurement Name: IC50 (µM)

>>> observed("COc1cccc(Nc2ncnc3ccccc23)c1")
15.6
>>> observed("CNCCC(=O)Nc1ccc2ncnc(Nc3ccc(F)c(Cl)c3)c2c1")
20.9
>>> observed("Clc1cccc(Nc2ncnc3ccccc23)c1")
22
>>> observed("O=C(CCN1CCOCC1)Nc1ccc2ncnc(Nc3ccc(F)c(Cl)c3)c2c1")
19.6
>>> observed("Cc1nc(Nc2ccc(F)c(Cl)c2)c2cc(NC(=O)CCN(C)C)ccc2n1")
1.04
>>> observed("Fc1ccccc1Nc1ncnc2ccccc12")
93.9
>>> observed("O=C(CCN1CCCCC1)Nc1ccc2ncnc(Nc3ccc(F)c(Cl)c3)c2c1")
12.6
>>> observed("CN(C)CCC(=O)Nc1ccc2ncnc(Nc3ccc(F)c(Cl)c3)c2c1")
9.54
>>> observed("Brc1cccc(Nc2ncnc3ccccc23)c1")
24.7
